ASSAY NAME: Cytotoxicity against mouse spleen cells
Format: cell-based
pIC50: −log10 of the molar value.
Decide using pIC50: a value greater than or equal to 6 is T, a smaller one is F.

Confirm if pIC50 reported for the compound `COc1cc2c(NC3CCN(Cc4ccccc4)CC3)nc(N3CCN(c4ccccc4)CC3)nc2cc1O` is 6 or above. F

API: above_or_equal(metric=pIC50, cutoff=6) for item `COc1cc2c(NC3CCN(Cc4ccccc4)CC3)nc(N3CCN(c4ccccc4)CC3)nc2cc1OCc1ccccc1` F

API: above_or_equal(metric=pIC50, cutoff=6) for item `O=C(/C=C/c1ccc(NC(=O)Cc2cccc3ccccc23)cn1)NO` T

Check the entry `COc1cc2nc(NCc3ccc(F)cc3)nc(NC3CCN(C(=O)OC(C)(C)C)CC3)c2cc1OC` : does pIC50 equal or exceed 6? F

Has `COc1cc2nc(N3CCCN(C)CC3)nc(NC3CCN(Cc4ccccc4)CC3)c2cc1OC` a recorded pIC50 greater than or equal to 6? T
